Target: T1, huNav1.7α + β1-β2-β3 (human, UniProt Q15858 1-1988; A5A6L6 19-218; O60939 30-215; Q2KI11 23-215)
T1 construct: Cell line (CHO FlpIn, HEK FlpIn, transient HEK293T) is named under assay; also called huNav1.7-beta1-beta2-beta3; human Nav1.7α with Navβ1, Navβ2 and Navβ3
Experiment: binding FACS, CHO FlpIn cells
Assay metric: Bmax (%)
Return type: number; implicit unit %.

Binder	Assay metric	Recorded measurement
F010302346 (VHH) VHH: EVQLVESGGGVVQPGGSLRLSCAASHRAFIRDVFTGWYRQAPGKQRELVARIYESGNTQYADSAKGRFTISRDNAKKTVYLQMNSLRPEDTALYYCLFSGTISTGREYRSGDYWGQGTLVTVSS	Bmax	100

Now consider the entry below.
Give Bmax for the following binder: F010302350 (VHH) VHH: EVQLVESGGGVVQPGGSLRLSCAASSRQFIRDVFTGWYRRAPGKQRELVARIYNEGNTQYADSVKGRFTISRDNAKKTVYLQMNSLRPEDTALYYCLFSGTISTGREYRSGDYWGQGTLVTVSS
100
